Test system: Veronica persica
Assay: Post-emergence herbicidal action against VERPE
Type: in vivo
Settings: 80 g a.i./ha

- molecule: "CSCCOC(=O)C1C=CC(NC(=O)C2(CCl)CC(c3cc(F)cc(F)c3)=NO2)C1 (stereo not drawn)"
  result_units: "%"
  Herbicidal action against [%] VERPE: 80
- molecule: "COC1(C(=O)NC2C=CC(C(=O)OCCSC)C2)CC(c2cccc(F)c2)=NO1 (mixture of isomers)"
  result_units: "%"
  Herbicidal action against [%] VERPE: 80
- molecule: "C=CC1(C(=O)NC2C=CC(C(=O)OCCSC)C2)CC(c2cc(C)cc(F)c2)=NO1 (mixture of isomers)"
  result_units: "%"
  Herbicidal action against [%] VERPE: 80
- molecule: "CSCCOC(=O)C1C=CC(NC(=O)C2(C(F)(F)F)CC(c3cc(F)cc(C#N)c3)=NO2)C1 (mixture of isomers) [Example I-38]"
  result_units: "%"
  Herbicidal action against [%] VERPE: 90
- molecule: "CSCCOC(=O)[C@@H]1C=C[C@H](NC(=O)C2(C(F)(F)F)CC(c3cc(F)cc(Cl)c3)=NO2)C1 (stereo partly drawn)"
  result_units: "%"
  Herbicidal action against [%] VERPE: 80
- molecule: "CSCCOC(=O)C1C=CC(NC(=O)C2(C(F)(F)F)CC(c3cc(F)cc(F)c3)=NO2)C1 (stereo not drawn)"
  result_units: "%"
  Herbicidal action against [%] VERPE: 80
- molecule: "CSCCOC(=O)C1C=CC(NC(=O)C2(C)CC(c3cc(F)cc(Cl)c3)=NO2)C1 (stereo not drawn)"
  result_units: "%"
  Herbicidal action against [%] VERPE: 90
- molecule: "C=CC1(C(=O)NC2CC=C(C(=O)OCCSC)C2)CC(c2cc(F)cc(F)c2)=NO1 (stereo not drawn)"
  result_units: "%"
  Herbicidal action against [%] VERPE: 90
- molecule: "CSCCOC(=O)C1C=CC(NC(=O)C2(C(F)(F)F)CC(c3cccc(C#N)c3)=NO2)C1 (mixture of isomers)"
  result_units: "%"
  Herbicidal action against [%] VERPE: 90
- molecule: "CSCCOC(=O)C1C=CC(NC(=O)C2(C)CC(c3cccc(C#N)c3)=NO2)C1 (stereo not drawn) [Example I-41]"
  result_units: "%"
  Herbicidal action against [%] VERPE: 80
- molecule: "CSCCOC(=O)C1C=CC(NC(=O)C2(C)CC(c3cccc(F)c3)=NO2)C1 (stereo not drawn)"
  result_units: "%"
  Herbicidal action against [%] VERPE: 90
- molecule: "C=CC1(C(=O)NC2C=CC(C(=O)OCCSC)C2)CC(c2ccccc2)=NO1 (mixture of isomers)"
  result_units: "%"
  Herbicidal action against [%] VERPE: 90
- molecule: "CSCCOC(=O)C1=CC(NC(=O)C2(C)CC(c3cc(F)cc(F)c3)=NO2)CC1 (stereo not drawn)"
  result_units: "%"
  Herbicidal action against [%] VERPE: 90
- molecule: "CSCCOC(=O)C1C=CC(NC(=O)C2(C)CC(c3cc(F)cc(F)c3)=NO2)C1 (stereo not drawn)"
  result_units: "%"
  Herbicidal action against [%] VERPE: 90
- molecule: "CSCCOC(=O)C1C=CC(NC(=O)C2(C3CC3)CC(c3cc(F)cc(F)c3)=NO2)C1 (stereo not drawn) [Example I-28]"
  result_units: "%"
  Herbicidal action against [%] VERPE: 90
